Test system: KB-3-1
experiment-summary: Cytotoxic Profiling of Annotated Libraries Using Quantitative High-Throughput Screening (AID 1296008); note: % is set by controls: 0 for no effect and ±100 for the full control effect; nearly all actives have a fitted effect of over 60% in size
test-context: Five cell lines viability, CellTiter-Glo ATP luminescence, 48-72 h; stronger effect = lower value
Inconclusive results are not listed. Activity calls are given as the source filed them. Calls come from the whole dose curve; as a rule, active = well fitted inhibition curve with a large enough effect; inconclusive = small, poorly fitted or top-dose-only effect; inactive = flat fitted curve, though single readings scatter.
parameter-measured: max response

compound	val
C[C@@]12CC[C@@H]3[C@@](CC[C@H]4[C@@]3(C)CCC[C@@]4(C)C(=O)O)(CC1=O)C2	1.35% (inactive)
CC1=C(C(=O)O)/C(=C/CO[C@@H]2O[C@H](COC(=O)/C=C/c3ccc(O)cc3)[C@@H](O)[C@H](O)[C@H]2O)C(O)C1 (some centres not stated)	2.44% (inactive)
O=C(O)c1cc2cccc([N+](=O)[O-])c2[nH]1	5.58% (inactive)
COC(=O)Cc1cc2c(c([N+](=O)[O-])c1)N(C(=O)CC[C@H](N)C(=O)O)CC2	7.29% (inactive)

query: What value of max response on KB-3-1 does `CSc1ccc(C(=O)N[C@@H]2CCCC[C@@H]2NC(=O)CNC(=O)c2cc(C(F)(F)F)ccc2NC(=O)NC(C)C)cc1` have?
result: -4.76% (inactive)

query: Would you mind doing C/C=C/C(O)C1OC(=O)CC1Nc1ccc(C(=O)O)cc1 (configuration not stated) as well?
result: 8.51% (inactive)

query: Would you mind doing `c1ccc(N2CCN(CCc3nn[nH]n3)CC2)cc1` as well?
result: 7.49% (inactive)

---

Reported max response values follow for various molecules
System: HEK293
experiment-summary: Cytotoxic Profiling of Annotated Libraries Using Quantitative High-Throughput Screening (AID 1296008); note: % is set by controls: 0 for no effect and ±100 for the full control effect; nearly all actives have a fitted effect of over 60% in size
test-context: Five cell lines viability, CellTiter-Glo ATP luminescence, 48-72 h; stronger effect = lower value
Inconclusive results are not listed.
Supply the numeric figure in %, leaving out any unit text.

Example molecules with recorded max response:
> print(dat)
                                   molecule  parameter.measured    val
1  C=C(C)C1Cc2cc(C(=O)OC3OC(CO)C(O)C(O)C3O)ccc2O1 (centres undefined)        max response    -15
2  CC1CCC2C(C(=O)O)=COC(O[C@@H]3O[C@H](CO)[C@@H](O)[C@H](O)[C@H]3O)C12 (some centres undefined)        max response  -3.47
3  COC1C(=O)CCC2(CO2)C1(O)C1(C)OC1CC=C(C)C (centres undefined)        max response  -34.7

query: What value of max response on HEK293 does CC1=C(C(=O)OCc2ccccc2)C(c2ccc(-c3ccccc3)cc2)NC(=O)N1CCCCCC(=O)O (centres undefined) have?
result: -21.5

query: Would you mind doing COC1=CC(=O)CC(C)C12Oc1cc(OC)cc(O)c1C2=O (centres undefined) as well?
result: 0.0359

query: Would you mind doing `CNC(=S)NS(=O)(=O)c1cc(CCNC(=O)c2cc(Cl)ccc2OC)ccc1OC` as well?
result: 0.225

query: Would you mind doing `C=C1C[C@]23C[C@H]1CC[C@H]2[C@]1(C)CCC[C@@](C)(C(=O)O)[C@H]1[C@@H]3C(=O)O` as well?
result: -6

query: Would you mind doing `COc1ccc(C(=O)n2c(C)c(Cc3cccc(O[C@@H](C)C(=O)O)c3)c3cc(OC(F)(F)F)ccc32)cc1` as well?
result: -1.86

query: Would you mind doing CC(=O)N1CCc2ccc(O)c(OC3OC(COC4OCC(O)(CO)C4O)C(O)C(O)C3O)c2C1Cc1ccc(O)cc1 (centres undefined) as well?
result: -5.03
